Below, each of the molecules is paired with its reported Barnyardgrass plant response rating value.
system: barnyardgrass (Echinochloa crus-galli); assay: Test A postemergence, barnyardgrass; format: in vivo; details: Postemergence, 500 g ai/ha; visual injury vs untreated controls after approx. 10 days; 0 to 100 scale (0 no effect, 100 complete control)
// keep it numeric: no unit symbol after the value

# count of solved cases: 5
{"molecule": "Cc1cc(C)c(N(S(C)(=O)=O)S(=O)(=O)C(F)(F)F)cc1-c1cc(Cl)nn(C)c1=O", "Barnyardgrass plant response rating": 0}
{"molecule": "Cc1ccc(-c2ccnn(C)c2=O)cc1NS(=O)(=O)C(F)(F)F", "Barnyardgrass plant response rating": 80}
{"molecule": "Cc1cc(C)c(N(S(=O)(=O)C(F)(F)F)S(=O)(=O)C(F)(F)F)cc1-c1cc(C(F)(F)F)nn(C)c1=O", "Barnyardgrass plant response rating": 80}
{"molecule": "COCC1(COC)CC(c2cc(NS(=O)(=O)C(F)(F)F)c(C)cc2C)=NO1", "Barnyardgrass plant response rating": 90}
{"molecule": "Cc1cc(C)c(C2=NOC3(CCSCC3)C2)cc1NS(=O)(=O)C(F)(F)F", "Barnyardgrass plant response rating": 90}

Find Barnyardgrass plant response rating (barnyardgrass (Echinochloa crus-galli)) for the entry Cc1cc(C)c(-c2ccnn(CC(F)(F)F)c2=O)cc1NS(=O)(=O)C(F)(F)F 90

Find Barnyardgrass plant response rating (barnyardgrass (Echinochloa crus-galli)) for the entry Cc1cc(F)c(C(=O)N2CCCCC2)cc1NS(=O)(=O)C(F)(F)F 30

Find Barnyardgrass plant response rating (barnyardgrass (Echinochloa crus-galli)) for the entry Cc1cc(Cl)c(C2=NOC(C)(C)C2)cc1NS(=O)(=O)C(F)(F)F 70
